Here, each record is paired with measured EC50 data.
# measurement-target: human CD3 on Jurkat cells (human)
# Sequence (chain, as listed by the source, chain 1 of 2): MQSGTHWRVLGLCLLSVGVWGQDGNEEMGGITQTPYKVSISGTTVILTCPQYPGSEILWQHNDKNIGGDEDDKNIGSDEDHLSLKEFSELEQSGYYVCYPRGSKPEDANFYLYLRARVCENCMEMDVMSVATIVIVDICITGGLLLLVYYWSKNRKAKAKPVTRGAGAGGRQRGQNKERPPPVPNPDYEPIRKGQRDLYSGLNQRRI
# Sequence (chain, as listed by the source, chain 2 of 2): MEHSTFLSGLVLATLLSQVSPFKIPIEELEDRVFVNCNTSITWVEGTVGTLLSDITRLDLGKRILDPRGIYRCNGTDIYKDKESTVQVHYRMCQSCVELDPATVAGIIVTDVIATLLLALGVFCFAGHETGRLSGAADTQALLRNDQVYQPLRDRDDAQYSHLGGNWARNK
# run-description: FACS

Examples with answers:
binder | EC50
H1H5786B (antibody, V domains shown) VH: QVQLVESGAEVKKPGASVKVSCKTSGYTFTGYYMHWIRQAPGQGLEWMGWINPKSGGTNYAQKFQGRVTMTRDTSISTAYMELSRLRSDDMAVYYCARMGDGAVFDFWGQGTLVTVSS VL: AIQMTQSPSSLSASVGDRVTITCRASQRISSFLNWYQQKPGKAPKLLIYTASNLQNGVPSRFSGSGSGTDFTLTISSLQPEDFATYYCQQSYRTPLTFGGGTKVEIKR | 1.1 nM
H1H5777P (antibody, V domains shown) VH: EVQLVESGGGLVQPGRSLRLSCAASGFTFDDYAMHWVRQAPGKGLEWVSGISWNSGSRDYADSVKGRFTISRDNARNSLFLQMNSLSTEDTALYYCAKDKSGYGSYYYGMDVWGQGTTVTVSS VL: EIVLTQSPGTLSLSPGDRATLSCRASQSIRSIYLAWYQQKPGQAPRLLIHGASTRATGIPDRFSGSGSGTDFTLTISRLEPEDFAVYYCQQRVSSPYTFGQGTKLEIK | 0.571 nM

Turning to the following binder.
GET /values?readout=EC50&item= H1H5751P (antibody) chain 1: EVQLVESGGDLVQPGRSLRLSCAASGFTFDDYTMHWVRQAPGKGLEWVSIISWNGNTIDYADSVKGRFTISRDNAKNSLYLQMNSLRAEDTALYYCAKDKSGYGHFYYYVLDVWGQGTTVTVSS chain 2: DIQMTQSPSSLSASVGDRVTITCRASQSINNYLNWYQQKPGKAPKLLIYAASSLQSGVPSRFSGSGSGTDFTLTISSLQPEDFATYYSQQSYSFPWTFGQGTKVEIK 2.12 nM
